PROCEDURE_DETAILS: Cytotoxicity against mouse BaF3 cells assessed as reduction in cell proliferation measured after 48 hrs by MTS assay
Format: cell-based
Please provide measured GI50 at 48 h for the entries that follow.

Param item = Cc1ccc(Oc2nc(-c3ccncc3)nc3[nH]ncc23)cc1NC(=O)c1ccc(CN2CCN(C)CC2)c(C(F)(F)F)c1 ; retrieve measured GI50 at 48 h. 3450 nM

Can you share its GI50 at 48 h? I mean this compound: Cc1ccc(C(=O)Nc2ccc(CN3CCN(C)CC3)c(C(F)(F)F)c2)cc1Oc1nc(-c2cccnc2)nc2[nH]ncc12 8030 nM

Would you kindly share the measured GI50 at 48 h for COc1cc2nccc(Oc3ccc(NC(=O)C4(C(=O)Nc5ccc(F)cc5)CC4)cc3)c2cc1OC [CABOZANTINIB] ? 7910 nM

What value of measured GI50 at 48 h is listed for Cc1ccc(C(=O)Nc2ccc(CN3CCN(C)CC3)c(C(F)(F)F)c2)cc1Oc1nc(-c2ccncc2)nc2c1cnn2C ? 2620 nM

// GI50 at 48 h lookup, key: CO[C@]1(C(=O)N[C@@H](C)c2ccc(-n3cc(F)cn3)nc2)CC[C@H](c2nc(C)cc(Nc3cc(C)[nH]n3)n2)CC1 1270 nM

Can you look up the measured GI50 at 48 h of Cc1ccc(C(=O)Nc2ccc(CN3CCN(C)CC3)c(C(F)(F)F)c2)cc1Oc1nc(-c2cccnc2)nc2c1cnn2C for me? 1290 nM

Sample Cc1ccc(C(=O)Nc2ccc(CN3CCN(C)CC3)c(C(F)(F)F)c2)cc1Oc1nc(-c2cccc(O)c2)nc2c1cnn2C — what was its GI50 at 48 h? 2640 nM

What value of measured GI50 at 48 h is listed for Cc1ccc(C(=O)Nc2ccc(CN3CCN(C)CC3)c(C(F)(F)F)c2)cc1Oc1nc(-c2ccoc2)nc2c1cnn2C ? > 10000 nM

Query: GI50 at 48 h; subject: Cc1ccc(Oc2nc(-c3ccncc3)nc3c2cnn3C)cc1NC(=O)c1ccc(CN2CCN(C)CC2)c(C(F)(F)F)c1 2780 nM

Could you share which GI50 at 48 h value was measured for CN1CCN(Cc2ccc(C(=O)Nc3cc(Oc4nc(-c5ccncc5)nc5[nH]ncc45)ccc3Cl)cc2C(F)(F)F)CC1 ? 1010 nM

Name the recorded GI50 at 48 h for CN1CCN(Cc2ccc(C(=O)Nc3cc(Oc4nc(-c5ccncc5)nc5c4cnn5C)ccc3Cl)cc2C(F)(F)F)CC1 . 3400 nM

Return reported GI50 at 48 h; argument: Cc1ccc(C(=O)Nc2ccc(CN3CCN(C)CC3)c(C(F)(F)F)c2)cc1Oc1nc(-c2ccsc2)nc2c1cnn2C 5070 nM
